Data provenance: PubChem BioAssay AID894

molecular target: 15-hydroxyprostaglandin dehydrogenase [NAD(+)] (Homo sapiens); assay: qHTS Assay for Inhibitors of HPGD (15-Hydroxyprostaglandin Dehydrogenase); details: purified HPGD, NADH fluorescence kinetic, PGE2 substrate; stronger effect = lower value; for activity change, negative = inhibition: % is set by controls: 0 for no effect and ±100 for the full control effect
Hit rate of the full screen: of about 150,000 compounds, about 6,500 (4.3%) were called active. Not shown: some 12% with an inconclusive outcome. What follows is part of a selection rich in actives, with near analogues and random picks from the rest.
# activity change, negative = inhibition listing for each entry below

compound | activity change, negative = inhibition (%)
Cc1cccc2cc(CN(C(=O)c3cccs3)c3ccccc3)c(=O)[nH]c12 | -18.7
C/C(=N/NS(=O)(=O)c1ccccc1)c1ccc(NC(=O)C(F)(F)F)cc1 | -4.99
Cc1cc(C)nc(SC2CCCCC2NS(=O)(=O)c2ccc(Cl)cc2)n1 (stereo not given) | -1.86
CC(O)c1nc2ccccc2n1Cc1ccc([N+](=O)[O-])cc1 (stereo not given) | -6.78
Cc1nn(Cc2ccccc2)c(C)c1C(=O)NCCN1C(=O)S/C(=C\c2ccc(F)cc2)C1=O | -19.6
CCCC/C(C)=N/NC(=O)NC1CCCCC1 | -6.12
COc1ccc(C2CC(c3ccccc3)=NN2C(=O)CSc2nccc(=O)[nH]2)cc1 (stereo not given) | -5.74
COc1ccc(OCc2cn3c(C)cc(C)nc3n2)cc1 | -7.95
O=C(CSc1nnc(SCc2ccc(Cl)cc2)s1)N/N=C/c1ccccc1Cl | -3.98
COc1ccc(O[C@H]2C=C[C@@H](c3ccccc3)O[C@@H]2CO/N=C/C[C@@H]2C=C[C@H](OC(C)=O)[C@@H](COC(C)=O)O2)cc1 | -8.59

---

target: 15-hydroxyprostaglandin dehydrogenase [NAD(+)] (Homo sapiens); assay: qHTS Assay for Inhibitors of HPGD (15-Hydroxyprostaglandin Dehydrogenase); details: purified HPGD, NADH fluorescence kinetic, PGE2 substrate; note: potency is the fitted concentration of half-maximal effect
The campaign covered roughly 150,000 compounds. About 6,500 (4.3%) were called active. Another 12% or so got no clear call; they are omitted. This is one part of a sample in which actives are shown more often than they occur.
# Potency listing for each entry below
measured_endpoint: Potency

molecule | measured_value
CC1CCCCN1CC(=O)NCc1ccc2c(c1)OCO2 (stereo not given) | 8.91 µM (active)
Clc1ccccc1CSc1nnc(-c2ccco2)c(-c2ccco2)n1 | 12.6 µM (active)
Cc1cc(=O)[nH]c(SCc2cc(Cl)ccc2OC(F)F)n1 | 14.1 µM (active)
Cc1ccc2sc(NNC(=O)c3ccc4c(c3)OCCO4)nc2c1C | 11.2 µM (active)
N#CC1=C(N)OC2=C(C(=O)CCC2)C1C1CC=CCC1 (stereo not given) | 20 µM (active)
O=C(Cn1[nH]c(=O)c2ccccc2c1=O)Nc1cccc(-c2nnc3n2CCCCC3)c1 | 14.1 µM (active)
Cc1cccc(N2C(=O)SC(SC(=Nc3ccccc3)Nc3ccccc3)C2=O)c1 (stereo not given) | 14.1 µM (active)
Cc1ccc2nc(SCc3nnc(-c4ccccc4[N+](=O)[O-])o3)c(C#N)cc2c1 | 1 µM (active)
COc1c(C(=O)N2CCCC2)ccc2ccccc12 | 12.6 µM (active)
COc1ccc(-n2c(=S)[nH]c3sc4c(c3c2=O)CCc2ccccc2-4)cc1 | 12.6 µM (active)

---

target: 15-hydroxyprostaglandin dehydrogenase [NAD(+)] (Homo sapiens) (UniProt P15428); test: qHTS Assay for Inhibitors of HPGD (15-Hydroxyprostaglandin Dehydrogenase); conditions: purified HPGD, NADH fluorescence kinetic, PGE2 substrate; stronger effect = lower value; for activity change, negative = inhibition: % is set by controls: 0 for no effect and ±100 for the full control effect
Sequence (P15428 whole entry, looked up): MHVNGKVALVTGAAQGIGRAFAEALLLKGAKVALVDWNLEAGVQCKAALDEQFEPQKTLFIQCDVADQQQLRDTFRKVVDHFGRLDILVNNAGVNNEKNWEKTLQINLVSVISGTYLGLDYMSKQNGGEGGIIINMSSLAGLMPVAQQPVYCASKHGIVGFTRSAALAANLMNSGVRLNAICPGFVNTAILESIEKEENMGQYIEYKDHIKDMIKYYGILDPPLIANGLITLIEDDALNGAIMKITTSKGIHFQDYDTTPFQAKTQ
In all, about 150,000 compounds went through this assay and about 6,500 (4.3%) were called active. Inconclusive results (about 12%) are left out. The sample as a whole holds a higher share of actives than the screen did.

query_smiles | activity change, negative = inhibition
CCOC(=O)c1c(NC(=O)CSc2nnc(CN3CCOCC3)n2C)sc2c1CCCC2 | -2.63% (inactive)
CC(=O)Nc1ccc(C(=O)OCC(=O)Nc2ccc([N+](=O)[O-])cc2C(F)(F)F)cc1 | -4.2% (inactive)
Cn1c(NC(=O)c2ccc3c(c2)OCO3)cc(=O)n(C)c1=O | -14.1% (inactive)
C=CCNC(=O)/C(=C\c1cccc([N+](=O)[O-])c1)NC(=O)c1ccccc1 | -14.6% (inactive)
O=C(Nc1ccccc1)c1ccc2c(c1)OCO2 | -29.6% (inactive)
